The entries below come with measured melting point values attached.

query smiles	parameter measured	measured
CC(C)[C@H](N)C(=O)OC1CCN(C(=O)[C@H]2CC[C@H](Nc3nccc(-n4ccc5c(OCCCS(C)(=O)=O)cccc54)n3)CC2)CC1	melting point	163 to 164 °C
CS(=O)(=O)CCCOc1cccc2c1ccn2-c1ccnc(N[C@H]2CC[C@H](C(=O)N3CCC(OC(=O)[C@@H]4CCCN4)CC3)CC2)n1	melting point	147 to 148 °C

Continue with the next compound.
**Query** Using known records, supply melting point for `CC[C@H](C)[C@@H](N)C(=O)OC1CCN(C(=O)[C@H]2CC[C@H](Nc3nccc(-n4ccc5c(OCCCS(C)(=O)=O)cccc54)n3)CC2)CC1`
**Result** 150 to 200 °C

---

Property: melting point; scope: individual molecules

molecule	melting point
CS(=O)(=O)CCCOc1cccc2c1ccn2-c1ccnc(N[C@H]2CC[C@H](C(=O)N3CCC(OC(=O)CCC(=O)O)CC3)CC2)n1 [Compound I-14]	214.2 to 217.7 °C
CC[C@H](C)[C@H](N)C(=O)OC1CCN(C(=O)[C@H]2CC[C@H](Nc3nccc(-n4ccc5c(OCCCS(C)(=O)=O)cccc54)n3)CC2)CC1 [Compound I-4]	137 to 138 °C
COP(=O)(OC)OC1CCN(C(=O)[C@H]2CC[C@H](Nc3nccc(-n4ccc5c(OCCCS(C)(=O)=O)cccc54)n3)CC2)CC1 [Compound I-12]	135 to 136 °C

Continue with the molecule presented below.
**Query** Supply melting point value. Item: CS(=O)(=O)CCCOc1cccc2c1ccn2-c1ccnc(N[C@H]2CC[C@H](C(=O)N3CCC(OP(=O)(O)O)CC3)CC2)n1 [Compound I-13]
**Result** 201.3 to 208.8 °C
